The reported numbers originate from patent US20260151519A1.

- measurementTarget: T1, Human Nectin-4 (human, UniProt Q96NY8 32-349, limits assumed)
- T1 construct: Protein immobilised on the SPR chip; also called target protein
- T1 sequence: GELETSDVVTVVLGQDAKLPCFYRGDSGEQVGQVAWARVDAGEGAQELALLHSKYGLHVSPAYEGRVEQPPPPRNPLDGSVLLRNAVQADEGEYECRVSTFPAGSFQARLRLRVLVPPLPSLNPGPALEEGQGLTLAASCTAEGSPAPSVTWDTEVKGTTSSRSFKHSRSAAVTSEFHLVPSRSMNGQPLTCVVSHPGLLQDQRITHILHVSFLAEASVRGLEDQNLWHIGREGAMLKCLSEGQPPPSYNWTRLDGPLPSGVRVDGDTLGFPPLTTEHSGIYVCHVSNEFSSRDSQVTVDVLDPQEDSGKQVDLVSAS
- testName: SPR, Biacore T200, target immobilised, 1:1 model
Bridges are numbered along the chain shown (N, C = ends). Primed or numbered codes have the meaning given here. Where no end group is shown, it is not given here. [ ]: non-standard residue; d: D form. The star is where a group is joined. Biotin = O=C1N[C@H]2[C@H](CS[C@H]2CCCCC(=O)*)N1; Lys(Me3) = C[N+](C)(C)CCCC[C@H](N)C(=O)O; Cit = NC(=O)NCCC[C@H](N)C(=O)O; PEG4″ = 4(ethylene glycol)
measuredMetric: Kd (pM)
Output spec: scalar in pM, unitless text.

These recorded examples may help you get a feel for the data.
binder	Kd / pM
{Biotin-PEG4″}-CDYDEQFFTALA[Cit]LRGGDICEYIQA[Lys(Me3)]FQYLPGLCIEEILDNLGCS-OH (designed binder, disulfide 1-34, 20-44) [C259]	226
{Biotin-PEG4″}-CEYDEQFFTALARLRGGDICEYIQARFQYLPGLCIEEILDNLGCS (designed binder, disulfide 1-34, 20-44) [C264]	476

Now consider a different binder.
input: Which Kd value belongs to {Biotin-PEG4″}-CEYDEEFFTALARLRGGDICQYIQAKFQYLPGQCIEEILDNLGCS (designed binder, disulfide 1-34, 20-44) [C149] ?
output: 297
